Target: MAPK14 (human) (UniProt Q16539)
Sequence (Q16539 whole entry, looked up): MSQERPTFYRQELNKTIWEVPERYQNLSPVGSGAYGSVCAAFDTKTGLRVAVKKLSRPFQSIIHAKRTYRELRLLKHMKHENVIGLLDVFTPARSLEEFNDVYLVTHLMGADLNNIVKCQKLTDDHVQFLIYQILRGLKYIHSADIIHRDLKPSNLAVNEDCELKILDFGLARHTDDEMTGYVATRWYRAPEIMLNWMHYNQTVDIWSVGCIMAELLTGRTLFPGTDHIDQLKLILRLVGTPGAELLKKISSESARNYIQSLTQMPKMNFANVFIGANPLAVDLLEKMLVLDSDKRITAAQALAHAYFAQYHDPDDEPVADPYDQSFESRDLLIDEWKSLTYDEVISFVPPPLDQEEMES
Experiment: Inhibition of LPS Stimulated TNF Production by U937 Cells
Conditions: concentration not given here
Readout name: inhibition (%)

Given smiles: CC(=O)O[C@@H](C)C(=O)N[C@H](C)c1[nH]nc(-c2ccc(F)cc2)c1-c1ccncc1
Readout name: inhibition
Units of measure: %
Measured result: 27

Given smiles: CCCCOc1ccc(NC(=O)NCCc2[nH]nc(-c3ccc(F)cc3)c2-c2ccncc2)cc1
Readout name: inhibition
Units of measure: %
Measured result: 27

Given smiles: Cc1ccccc1S(=O)(=O)N[C@@H](C)c1[nH]nc(-c2ccc(F)cc2)c1-c1ccncc1
Readout name: inhibition
Units of measure: %
Measured result: 94

Given smiles: C[C@@H](NC(=O)C1CC1)c1[nH]nc(-c2ccc(F)cc2)c1-c1ccncc1
Readout name: inhibition
Units of measure: %
Measured result: 46

Given smiles: CCOC(=O)CCCC(=O)NCc1[nH]nc(-c2ccc(F)cc2)c1-c1ccncc1
Readout name: inhibition
Units of measure: %
Measured result: 22

Given smiles: N#Cc1ccc(S(=O)(=O)NCCCc2[nH]nc(-c3ccc(F)cc3)c2-c2ccncc2)cc1
Readout name: inhibition
Units of measure: %
Measured result: 75

Given smiles: CC(=O)OC(C)(C)C(=O)NCCc1[nH]nc(-c2ccc(F)cc2)c1-c1ccncc1
Readout name: inhibition
Units of measure: %
Measured result: 71

Given smiles: O=C(NCCc1[nH]nc(-c2ccc(F)cc2)c1-c1ccncc1)Nc1cc(Cl)ccc1Cl
Readout name: inhibition
Units of measure: %
Measured result: 39

Given smiles: Cc1ccccc1C(=O)N[C@@H](C)c1[nH]nc(-c2ccc(F)cc2)c1-c1ccncc1
Readout name: inhibition
Units of measure: %
Measured result: 34

A. CCCNC(=O)NCc1[nH]nc(-c2ccc(F)cc2)c1-c1ccncc1
B. O=S(=O)(NCc1[nH]nc(-c2ccc(F)cc2)c1-c1ccncc1)c1ccccc1Br
C. C[C@@H](NC(=O)c1cc2ccccc2s1)c1[nH]nc(-c2ccc(F)cc2)c1-c1ccncc1
D. C[C@@H](NC(=O)c1cc(Cl)cc(Cl)c1)c1[nH]nc(-c2ccc(F)cc2)c1-c1ccncc1
E. O=C(N[C@H](Cc1ccccc1)c1[nH]nc(-c2ccc(F)cc2)c1-c1ccncc1)[C@H]1CCCN1
Please produce an ascending ranking of these compounds based on inhibition. Your reply should list the labels following the order given in the request.
E, D, C, A, B
